biological target: rat GABAA α2β2γ2 Receptors (Rattus norvegicus, UniProt P23576); construct: expressed in transfected cells; pIRES Neo2 / Hygro2 / Puro2 vectors; test: PatchXpress 7000A automated parallel patch-clamp: potentiation of GABA EC20 current in HEK293 cells; format: cell-based; conditions: percent increase in mean GABA EC20 current response; HEK293 cells stably expressing rat GABAA α2β2γ2; voltage-clamped at −60 mV; read-out: GABAA α2 EP EMAX (%)
Sequence (P23576 29-451): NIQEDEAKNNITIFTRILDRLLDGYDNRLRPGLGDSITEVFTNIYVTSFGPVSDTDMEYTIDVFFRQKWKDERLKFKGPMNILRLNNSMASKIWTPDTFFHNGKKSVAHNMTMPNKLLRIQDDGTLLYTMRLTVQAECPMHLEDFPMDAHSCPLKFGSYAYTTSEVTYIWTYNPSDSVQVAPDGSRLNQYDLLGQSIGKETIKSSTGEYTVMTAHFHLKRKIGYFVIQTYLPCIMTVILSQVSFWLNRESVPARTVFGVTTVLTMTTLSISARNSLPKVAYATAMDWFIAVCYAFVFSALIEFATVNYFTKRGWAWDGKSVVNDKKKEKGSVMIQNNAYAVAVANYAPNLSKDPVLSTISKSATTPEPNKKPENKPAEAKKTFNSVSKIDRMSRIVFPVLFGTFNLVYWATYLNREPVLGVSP
Sequence (P63138 25-474 partner limits assumed): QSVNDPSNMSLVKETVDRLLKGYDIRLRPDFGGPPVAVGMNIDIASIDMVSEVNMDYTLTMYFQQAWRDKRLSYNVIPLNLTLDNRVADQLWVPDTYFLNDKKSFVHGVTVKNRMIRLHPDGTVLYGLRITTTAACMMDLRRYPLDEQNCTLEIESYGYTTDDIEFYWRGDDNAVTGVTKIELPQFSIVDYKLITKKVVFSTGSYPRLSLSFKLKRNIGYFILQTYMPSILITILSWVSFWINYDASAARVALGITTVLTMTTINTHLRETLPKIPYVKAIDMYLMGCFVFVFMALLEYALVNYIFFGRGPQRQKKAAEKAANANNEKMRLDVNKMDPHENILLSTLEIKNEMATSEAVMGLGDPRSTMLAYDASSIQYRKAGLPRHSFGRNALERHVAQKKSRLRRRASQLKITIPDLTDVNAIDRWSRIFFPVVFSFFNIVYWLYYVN
Sequence (P18508 39-466 partner): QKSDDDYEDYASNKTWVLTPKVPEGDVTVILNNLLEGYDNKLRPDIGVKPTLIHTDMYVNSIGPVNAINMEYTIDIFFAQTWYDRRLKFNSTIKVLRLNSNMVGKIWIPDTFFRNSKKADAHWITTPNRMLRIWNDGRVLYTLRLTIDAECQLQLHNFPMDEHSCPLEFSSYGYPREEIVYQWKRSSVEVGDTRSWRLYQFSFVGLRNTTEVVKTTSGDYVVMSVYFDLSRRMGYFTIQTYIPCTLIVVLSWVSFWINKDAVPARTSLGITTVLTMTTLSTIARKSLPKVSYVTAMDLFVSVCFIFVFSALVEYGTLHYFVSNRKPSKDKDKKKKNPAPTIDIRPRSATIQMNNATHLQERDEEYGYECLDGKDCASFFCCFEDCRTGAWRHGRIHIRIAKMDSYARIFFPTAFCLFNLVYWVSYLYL
Counter-ions that a name gives are not always drawn.
Would you mind telling me the reported Emax of each entry?

# batch: return Emax for each of the 4 compounds below
1. C#Cc1ccc2c(c1)C(c1ccccc1)=NCc1c(C(=O)N[C@@H](COC)C3CC3)ncn1-2
2. C#Cc1ccc2c(c1)C(c1ccccc1)=NCc1c(C(=O)NC3CC3)ncn1-2
3. C#Cc1ccc2c(c1)C(c1ccccc1F)=NCc1c(C(=O)NCCOC)ncn1-2 [Example 34, dihydrochloride]
4. C#Cc1ccc2c(c1)C(c1ccccc1)=NCc1c(C(=O)NCCCOC)ncn1-2

1: 200 to 300%; 2: > 500%; 3: 300 to 400%; 4: 400 to 500%
